- System: AEA membrane transporter (AMT)
- protocol: [3H]AEA uptake by human healthy brain
- Format: biochemical
- condition_details: read-out: IC50 of inhibition of [3H]AEA uptake; HB synaptosomes; 15 min at 37°C
# reported IC50; entries follow

// IC50 (AEA membrane transporter (AMT)) for CCCCC/C=C\C/C=C\C/C=C\C/C=C\CCCC(=O)Nc1ccc(O)cc1 [AM404, N-(4-hydroxyphenyl)-arachidonoylamide] = ~7 µM

// IC50 (AEA membrane transporter (AMT)) for CCCCC/C=C\C/C=C\C/C=C\C/C=C\CCCC(=O)Nc1ccc(O)cc1C = ~7 µM

----------
- Tested on: AEA membrane transporter (AMT)
- Assay type: biochemical, human
- condition_details: read-out: IC50 of inhibition of [3H]AEA uptake
pIC50: −log10 of the molar value.
readout_kind: pIC50

>>> print(df.to_string())
                                   compound  measured
0  CCCCC/C=C\C/C=C\C/C=C\C/C=C\CCCC(=O)Nc1ccc(O)cc1 [AM404, N-(4-hydroxyphenyl)-arachidonoylamide]     ~5.15

Now look at this one.
// pIC50 (AEA membrane transporter (AMT)) for CCCCC/C=C\C/C=C\C/C=C\C/C=C\CCCC(=O)Nc1ccc(O)cc1C = ~5.15
